Provide the reported Dmax at 1 µM of each item.
system.under.test: CDK16 (Homo sapiens, UniProt Q00536)
Construct: Whole cell extracts were prepared using RIPA buffer; endogenous in cells; host or cells: MV-4-11
Sequence (Q00536 whole entry): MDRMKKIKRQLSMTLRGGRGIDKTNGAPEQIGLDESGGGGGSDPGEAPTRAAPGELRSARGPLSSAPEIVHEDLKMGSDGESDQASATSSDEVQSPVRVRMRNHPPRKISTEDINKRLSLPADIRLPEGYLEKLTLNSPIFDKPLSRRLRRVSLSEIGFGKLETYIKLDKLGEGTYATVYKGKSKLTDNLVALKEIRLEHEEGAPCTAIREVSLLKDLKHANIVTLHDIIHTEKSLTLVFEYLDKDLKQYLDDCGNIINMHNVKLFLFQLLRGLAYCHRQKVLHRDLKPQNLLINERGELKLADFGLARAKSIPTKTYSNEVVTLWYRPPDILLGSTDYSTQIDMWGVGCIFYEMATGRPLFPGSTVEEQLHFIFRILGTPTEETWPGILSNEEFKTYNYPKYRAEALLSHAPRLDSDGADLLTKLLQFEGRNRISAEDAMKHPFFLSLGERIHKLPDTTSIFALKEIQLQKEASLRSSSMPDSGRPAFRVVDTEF
experiment: CDK16 degradation assay (Western blot, MV-4-11 cells)
Assay type: cell-based
assay.context: MV4-11, 1 μM, 6-8 h

GET /value?item= Cn1ncc(-c2nc(N[C@H]3CC[C@H](NCC(=O)NCCCCNCC(=O)NCc4cc5c(s4)C(=O)N(C4CCC(=O)NC4=O)C5=O)CC3)ncc2Cl)c1CC1CC1 (some centres unmarked) &field=Dmax at 1 µM returns 25 to 50%

For reference, reported Dmax at 1 µM for CC(C)(C)c1cnc(CSc2cnc(NC(=O)C3CCN(CC(=O)NCCOCCOCCOCCNCC(=O)NCc4cc5c(s4)C(=O)N(C4CCC(=O)NC4=O)C5)CC3)s2)o1 (centres unmarked) stands at < 25%

The value of Dmax at 1 µM measured for the compound CN(CCNC(=O)CN1CCC(C(=O)Nc2ncc(SCc3ncc(C(C)(C)C)o3)s2)CC1)CCNC(=O)NCc1cc2c(s1)C(=O)N(C1CCC(=O)NC1=O)C2 (centres unmarked) turned out to be < 25%

response.value for Cn1ncc(-c2nc(N[C@H]3CC[C@H](NCC(=O)NCCCCNCC(=O)NCc4cc5c(s4)C(=O)N(C4CCC(=O)NC4=O)C5)CC3)ncc2F)c1CC1CC1 (some centres unmarked) (field: Dmax at 1 µM) = 50 to 75%

Note to self: Dmax at 1 µM recorded for CC(C)(C)c1cnc(CSc2cnc(NC(=O)C3CCN(CC(=O)NCCCCNCC(=O)NCc4cc5c(s4)C(=O)N(C4CCC(=O)NC4=O)C5)CC3)s2)o1 (centres unmarked) was 25 to 50%

Given item Cn1ncc(-c2nc(N[C@H]3CC[C@H](NCCCCCCCCNC(=O)NCc4cc5c(s4)C(=O)N(C4CCC(=O)NC4=O)C5)CC3)ncc2F)c1CC1CC1 (some centres unmarked) , the value recorded as its Dmax at 1 µM is ≥ 75%

Value of Dmax at 1 µM reported for the compound Cn1ncc(-c2nc(N[C@H]3CC[C@H](NCC(=O)NCCCCCNCC(=O)NCc4cc5c(s4)C(=O)N(C4CCC(=O)NC4=O)C5)CC3)ncc2Cl)c1CC1CC1 (some centres unmarked) is 50 to 75%

Input Cn1ncc(-c2nc(N[C@H]3CC[C@H](NCC(=O)NCCCCCNC(=O)NCc4cc5c(s4)C(=O)N(C4CCC(=O)NC4=O)C5)CC3)ncc2Cl)c1CC1CC1 (some centres unmarked) . Output Dmax at 1 µM: ≥ 75%

# compound CC(C)(C)c1cnc(CSc2cnc(NC(=O)C3CCN(CC(=O)NCCCCCNCC(=O)NCc4scc5c4CN(C4CCC(=O)NC4=O)C5=O)CC3)s2)o1 (centres unmarked) ; its Dmax at 1 µM = 50 to 75%

Cn1ncc(-c2nc(N[C@H]3CC[C@H](NCC(=O)NCCNCC(=O)NCc4cc5c(s4)C(=O)N(C4CCC(=O)NC4=O)C5)CC3)ncc2Cl)c1CC1CC1 (some centres unmarked) has a reported Dmax at 1 µM of 50 to 75%

Measured Dmax at 1 µM of CC(C)(C)c1cnc(CSc2cnc(NC(=O)C3CCN(CC(=O)NCCCNC(=O)NCc4cc5c(s4)C(=O)N(C4CCC(=O)NC4=O)C5)CC3)s2)o1 (centres unmarked) : 25 to 50%
